These data points were gathered from patent US8722622B2.

assay: Stability of linkers L1-L4 conjugated to FGF21 (LC-MS); format: physicochemical; settings: +4° C., 72 hrs
Reported 0 linker (unconjugated protein) values for the following molecules.
The reply should contain only the number, in %.

- MOLECULE: "L3-FGF21ΔH-A129C: Linker-3 conjugated to FGF21ΔH-A129C protein (Table 4; Table 5 row L3) (conjugate, UniProt Q9NSA1 29-209, looked up, variant H1* A129C, Linker-3 attached) Fibroblast growth factor 21: PIPDSSPLLQFGGQVRQRYLYTDDAQQTEAHLEIREDGTVGGAADQSPESLLQLKALKPGVIQILGVKTSRFLCQRPDGALYGSLHFDPEACSFRELLLEDGYNVYQSEAHGLPLHLPGNKSPHRDPCPRGPARFLPLPGLPPALPEPPGILAPQPPDVGSSDPLSMVGPSQGRSPSYAS"
  0 linker (unconjugated protein), %: 19
- MOLECULE: "L2-FGF21ΔH-A129C: Linker-2 conjugated to FGF21ΔH-A129C protein (Table 4; Table 5 row L2) (conjugate, UniProt Q9NSA1 29-209, looked up, variant H1* A129C, Linker-2 attached) Fibroblast growth factor 21: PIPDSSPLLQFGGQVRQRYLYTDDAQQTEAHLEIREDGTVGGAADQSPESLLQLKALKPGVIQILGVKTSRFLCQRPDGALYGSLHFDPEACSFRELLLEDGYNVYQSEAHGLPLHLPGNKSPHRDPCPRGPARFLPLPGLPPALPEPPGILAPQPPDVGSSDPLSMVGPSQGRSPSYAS"
  0 linker (unconjugated protein), %: 24

Below: the item to evaluate.
## Input Complete the entry with 0 linker (unconjugated protein) for L1-FGF21ΔH-A129C: Linker-1 conjugated to FGF21ΔH-A129C protein (Table 4; Table 5 row L1) (conjugate, UniProt Q9NSA1 29-209, looked up, variant H1* A129C, Linker-1 attached) Fibroblast growth factor 21: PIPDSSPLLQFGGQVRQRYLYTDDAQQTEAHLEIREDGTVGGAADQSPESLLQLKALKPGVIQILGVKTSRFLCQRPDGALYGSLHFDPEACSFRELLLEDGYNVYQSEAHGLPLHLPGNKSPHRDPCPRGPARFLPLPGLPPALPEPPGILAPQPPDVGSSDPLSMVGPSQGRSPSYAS
## Output 14
